tested_target: T1, BMP-12 (UniProt Q7Z4P5 322-450, limits assumed)
T1 construct: also called BMP12/GDF7
T1 sequence (looked up): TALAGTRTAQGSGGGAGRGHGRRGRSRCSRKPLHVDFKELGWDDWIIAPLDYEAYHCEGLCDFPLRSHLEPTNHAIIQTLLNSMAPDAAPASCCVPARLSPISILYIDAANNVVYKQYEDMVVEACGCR
protocol_text: peptide resin, filter plate; load 11: 50 mM Tris, 0.25 M NaCl, 30% MPD, pH 8.0
No end group written: not given here.
readout_name: Flow-through conc (mg/mL)
Answers are plain numbers, in mg/mL.

binder: Ac-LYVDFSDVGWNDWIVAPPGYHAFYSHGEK [BMP2 Full peptide 747]
Flow-through conc (mg/mL): 0.45

binder: Ac-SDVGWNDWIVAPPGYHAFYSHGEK [BMP2 N-trun 1S peptide 751]
Flow-through conc (mg/mL): 0.425

binder: Ac-VAPPGYHAFYSHGEK [BMP2 N-trunc_2 peptide 745]
Flow-through conc (mg/mL): 0.431

binder: Ac-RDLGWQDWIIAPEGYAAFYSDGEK [BMP5 peptide 748]
Flow-through conc (mg/mL): 0.375

binder: Ac-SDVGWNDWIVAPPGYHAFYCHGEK [BMP2 N-trun peptide 750]
Flow-through conc (mg/mL): 0.342

binder: Ac-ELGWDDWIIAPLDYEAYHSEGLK [BMP12 N-trun_1S peptide 749]
Flow-through conc (mg/mL): 0.416

Now consider a different binder.
INPUT: Which Flow-through conc is listed for Ac-LYVSDVGWNDWIVK (not fully specified (residue 3); printed as Ac-LYV**SDVGWNDWIVK; also: ** after V3 not explained) [BMP2 C-trunc_2 peptide 746] ?
OUTPUT: 0.515
